target: human TYK2 (JH2domain-pseudokinase) (Homo sapiens (Human), UniProt P29597); test: TYK2 JH2 Domain Binding Assay (KINOMEscan)
Sequence (P29597 556-888): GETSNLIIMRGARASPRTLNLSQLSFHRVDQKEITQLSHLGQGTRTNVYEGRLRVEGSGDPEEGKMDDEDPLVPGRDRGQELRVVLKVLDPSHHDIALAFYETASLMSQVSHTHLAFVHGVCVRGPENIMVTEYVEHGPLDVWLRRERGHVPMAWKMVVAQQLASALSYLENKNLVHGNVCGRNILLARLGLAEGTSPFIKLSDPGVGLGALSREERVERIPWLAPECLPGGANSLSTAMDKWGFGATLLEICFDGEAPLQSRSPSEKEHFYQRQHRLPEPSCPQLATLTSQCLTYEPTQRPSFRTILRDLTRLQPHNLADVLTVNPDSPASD
pKd: −log10 of the molar value.
measureName: pKd

Before answering, review these 3 worked examples.
| compound | assayTarget | pKd |
| --- | --- | --- |
| CNc1cc(-c2cn(C(C)C)c3ncccc23)nc2c(C(=O)N[C@H]3CC[C@@]3(C)O)cnn12 [I-1409] | human TYK2 (JH2domain-pseudokinase) (Homo sapiens (Human), UniProt P29597) | 9.00 to 9.70 |
| CNc1cc(Nc2cccn([C@@H]3CC[C@H]3O)c2=O)nc2c(C(=O)N[C@@H]3CC[C@H]3OC)cnn12 [I-1309] | human TYK2 (JH2domain-pseudokinase) (Homo sapiens (Human), UniProt P29597) | > 9.70 |
| CNc1cc(Nc2cccn(C3CCOCC3)c2=O)nc2c(C(=O)N[C@@H]3CC[C@H]3O)cnn12 [I-597] | human TYK2 (JH2domain-pseudokinase) (Homo sapiens (Human), UniProt P29597) | 9.00 to 9.70 |

GET /value?item= CNc1cc(Nc2cccn(-c3ccc(F)cc3)c2=O)nc2c(C(N)=O)cnn12 [I-9] &field=pKd returns > 9.70

====

// reported IC50 per item
target: JAK2/JAK2 homdimeric complex (Homo sapiens (Human)); assay: GM-CSF Induced pSTAT5 in Human PBMC; settings: GM-CSF 5 ng/mL for 20 minutes, pSTAT5 by MSD, read-out: PBMC_GMCSF_pSTAT5 IC50
Sequence (O60674 whole entry): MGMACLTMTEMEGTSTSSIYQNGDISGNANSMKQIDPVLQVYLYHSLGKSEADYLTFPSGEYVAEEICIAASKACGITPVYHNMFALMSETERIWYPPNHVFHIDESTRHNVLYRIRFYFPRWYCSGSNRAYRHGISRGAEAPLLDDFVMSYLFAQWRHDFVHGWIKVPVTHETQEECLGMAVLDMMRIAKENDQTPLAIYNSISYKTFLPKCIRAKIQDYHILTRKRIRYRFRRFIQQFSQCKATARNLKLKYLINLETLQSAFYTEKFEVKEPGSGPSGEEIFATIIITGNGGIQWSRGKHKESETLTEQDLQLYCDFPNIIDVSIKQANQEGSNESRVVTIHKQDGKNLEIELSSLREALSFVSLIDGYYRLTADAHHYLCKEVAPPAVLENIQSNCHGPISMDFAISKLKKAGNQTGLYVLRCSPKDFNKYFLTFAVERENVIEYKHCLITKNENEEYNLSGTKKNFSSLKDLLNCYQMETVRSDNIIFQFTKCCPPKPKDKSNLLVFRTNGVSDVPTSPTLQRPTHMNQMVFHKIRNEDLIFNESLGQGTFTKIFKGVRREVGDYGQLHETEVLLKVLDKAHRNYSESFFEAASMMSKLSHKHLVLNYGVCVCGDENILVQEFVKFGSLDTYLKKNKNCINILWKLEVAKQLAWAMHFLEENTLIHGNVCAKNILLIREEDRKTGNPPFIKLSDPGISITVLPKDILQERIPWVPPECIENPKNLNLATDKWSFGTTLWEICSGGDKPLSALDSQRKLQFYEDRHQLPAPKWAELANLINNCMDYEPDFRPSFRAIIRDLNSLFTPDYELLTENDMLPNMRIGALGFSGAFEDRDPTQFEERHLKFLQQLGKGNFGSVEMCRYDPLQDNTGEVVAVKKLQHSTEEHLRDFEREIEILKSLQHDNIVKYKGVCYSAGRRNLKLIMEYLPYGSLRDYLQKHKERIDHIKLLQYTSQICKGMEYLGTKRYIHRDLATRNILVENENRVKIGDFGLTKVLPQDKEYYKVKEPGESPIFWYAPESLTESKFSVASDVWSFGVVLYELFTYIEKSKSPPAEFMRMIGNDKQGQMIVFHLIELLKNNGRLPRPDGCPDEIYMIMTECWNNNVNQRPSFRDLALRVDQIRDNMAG
Sequence (P32927 17-897 partner): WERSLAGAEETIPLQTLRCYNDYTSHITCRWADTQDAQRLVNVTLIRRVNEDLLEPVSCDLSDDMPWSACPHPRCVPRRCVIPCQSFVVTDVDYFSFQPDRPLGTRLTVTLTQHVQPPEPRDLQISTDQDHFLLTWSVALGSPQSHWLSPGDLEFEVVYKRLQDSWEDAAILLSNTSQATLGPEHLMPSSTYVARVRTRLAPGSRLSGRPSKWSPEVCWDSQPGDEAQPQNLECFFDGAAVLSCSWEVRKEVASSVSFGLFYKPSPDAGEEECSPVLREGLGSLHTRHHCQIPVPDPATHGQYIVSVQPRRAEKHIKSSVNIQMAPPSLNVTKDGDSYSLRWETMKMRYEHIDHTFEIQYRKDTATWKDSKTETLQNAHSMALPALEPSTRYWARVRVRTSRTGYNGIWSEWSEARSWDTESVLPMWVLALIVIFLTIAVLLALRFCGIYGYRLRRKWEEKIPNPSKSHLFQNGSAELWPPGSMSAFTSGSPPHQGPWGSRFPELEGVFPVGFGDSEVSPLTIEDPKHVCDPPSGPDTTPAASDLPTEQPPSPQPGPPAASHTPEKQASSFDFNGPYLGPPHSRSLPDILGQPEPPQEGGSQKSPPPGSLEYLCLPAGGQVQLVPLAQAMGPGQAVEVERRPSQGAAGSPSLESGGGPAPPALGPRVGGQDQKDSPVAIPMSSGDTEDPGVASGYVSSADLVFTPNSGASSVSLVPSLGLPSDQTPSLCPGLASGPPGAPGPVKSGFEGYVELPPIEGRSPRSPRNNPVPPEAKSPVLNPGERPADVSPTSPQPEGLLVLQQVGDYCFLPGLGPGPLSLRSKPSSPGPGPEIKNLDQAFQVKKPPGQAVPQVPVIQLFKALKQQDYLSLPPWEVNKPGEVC

The measured IC50 that CNc1cc(Nc2cccn(-c3nccs3)c2=O)nc2c(C(=O)N[C@H]3C[C@H]3F)cnn12 [I-243] showed for JAK2/JAK2 homdimeric complex (Homo sapiens (Human)) is > 2.5 µM

The measured IC50 that CNc1cc(Nc2cccn([C@@H]3CC[C@H]3O)c2=O)nc2c(C(=O)N[C@@H]3C[C@@H]3F)cnn12 [I-999] showed for JAK2/JAK2 homdimeric complex (Homo sapiens (Human)) is > 50 µM

The measured IC50 that CNc1cc(Nc2cccn(-c3ccc(F)cn3)c2=O)nc2c(C(=O)NC3CCC3)cnn12 [I-238] showed for JAK2/JAK2 homdimeric complex (Homo sapiens (Human)) is > 50 µM

The measured IC50 that CNc1cc(Nc2cc(F)cn(-c3ccn(C)n3)c2=O)nc2c(C(=O)N[C@H]3C[C@H]3F)cnn12 [I-379] showed for JAK2/JAK2 homdimeric complex (Homo sapiens (Human)) is > 2.5 µM

====

molecular target: JAK2 kinase domain (JH1) (Homo sapiens (Human), UniProt O60674); experiment: JAK2 Radioactive Kinase Assay; format: biochemical; conditions: compound at 10 μM; ATP 10 μM; read-out: JAK2 JH1% Inhibition @ 10 μM
Sequence (O60674 849-1124): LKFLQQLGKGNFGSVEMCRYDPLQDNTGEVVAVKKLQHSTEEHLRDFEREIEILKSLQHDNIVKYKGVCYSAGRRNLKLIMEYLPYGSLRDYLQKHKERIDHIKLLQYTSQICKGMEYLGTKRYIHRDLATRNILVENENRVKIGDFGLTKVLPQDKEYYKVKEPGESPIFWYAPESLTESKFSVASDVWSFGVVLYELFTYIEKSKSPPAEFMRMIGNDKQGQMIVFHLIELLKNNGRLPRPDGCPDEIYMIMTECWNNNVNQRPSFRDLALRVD
// reported inhibition at 10 µM per item

Before answering, review these 4 worked examples.
| compound | inhibition at 10 µM |
| --- | --- |
| [2H]C([2H])([2H])Oc1ncccc1Nc1cc(NC)n2ncc(C(=O)N[C@H]3CCC[C@H](O)C3)c2n1 | < 50% |
| CNc1cc(Nc2cccn(-c3cnc(C(=O)N(C)C)cn3)c2=O)nc2c(C(=O)NC3CCC3)cnn12 | < 50% |
| [2H]C([2H])([2H])Nc1cc(Nc2cccnc2OC2CC2)nc2c(C(=O)N[C@@H]3C[C@@H]3F)cnn12 (stereo in doubt) | 50 to 70% |
| CNc1cc(Nc2cccn(-c3cccnc3)c2=O)nc2c(C(=O)N[C@@H]3C[C@@H]3F)cnn12 | < 50% |

GET /value?item= `CCOc1ccc(-n2cccc(Nc3cc(N)n4ncc(C(N)=O)c4n3)c2=O)nn1` &field=inhibition at 10 µM returns < 50%

GET /value?item= `CNc1cc(Nc2cccnc2OC(F)(F)F)nc2c(C(=O)NC3CC3)cnn12` &field=inhibition at 10 µM returns < 50%

GET /value?item= `CNc1cc(Nc2cccnc2C(C)(F)F)nc2c(C(=O)NC3CC3)cnn12` &field=inhibition at 10 µM returns < 50%
